Test: Phase I plasma pharmacokinetics
Type: in vivo, human
Conditions: human, plasma, iv, 4.13 mg/kg, Cohort 5: 4.13 mg/kg; N = 3; 90-min IV infusion; Cycle 1 Day 3; plasma LC-MS; read-out: Time to peak plasma concentration, Median
Ends that are not written are not given here.
observable: Tmax (min)
Write down the numeric answer in min and omit the unit.

Per the record, KEFLHPSKVDLPR [SOR-C13] has Tmax of 45

---

Assay: Phase I plasma pharmacokinetics
Format: in vivo, human
Settings: human, plasma, iv, 1.375 mg/kg, Cohort 3: 1.375 mg/kg; N = 3; 90-min IV infusion; Cycle 1 Day 8; plasma LC-MS; read-out: Peak plasma concentration, Median
Ends that are not written are not given here.
observable: Cmax (ng/mL)
# number only, unit ng/mL dropped from output

Please fill in: Cmax reported for KEFLHPSKVDLPR [SOR-C13] = 237

Reference for the values: paper PMC5418314
